Compound	melting point
CCCCCCCCOc1ccc(C2CN(CCC(=O)O)CCO2)c(C(F)(F)F)c1.Cl (stereo not drawn)	178.5 to 180.5 °C
CCc1cccc(Cl)c1COc1ccc(C2CN(CCC(=O)O)CCO2)c(C(F)(F)F)c1.Cl (stereo not drawn)	214 to 215 °C
Cl.O=C(O)CCN1CCOC(c2ccc(OCc3c(Cl)cccc3Cl)cc2C(F)(F)F)C1 (stereo not drawn)	195 to 197 °C
O=C(O)CCN1CCOC(c2ccc(OC3COc4ccccc43)cc2)C1 (stereo not drawn)	141.5 to 144.5 °C
O=C(O)CCN1CCOC(c2ccc(OC3CCc4ccccc43)cc2)C1 (stereo not drawn)	124 to 129.5 °C
Cl.O=C(O)CCN1CCOC(c2ccc(OCc3c(Cl)cccc3C(F)(F)F)cc2C(F)(F)F)C1 (stereo not drawn)	200 to 201 °C
Cl.O=C(O)CCN1CCOC(c2cccc(OCc3c(Cl)cccc3Cl)c2)C1 (stereo not drawn)	229 to 230 °C
Cc1cccc2c1C(Oc1ccc(C3CN(CCC(=O)O)CCO3)cc1)CC2 (stereo not drawn)	134 to 139 °C
Cl.O=C(O)CCN1CCOC(c2ccc(OCc3ccccc3C(F)(F)F)c(Cl)c2)C1 (stereo not drawn)	199 to 201 °C

###

Target Or System: human S1P3 receptor (Homo sapiens, UniProt Q99500)
Construct: cell line established at Solvay Pharmaceuticals; host or cells: CHO K1 (CHO/Gα16/AEQ/h-S1P3)
Sequence (Q99500 whole entry): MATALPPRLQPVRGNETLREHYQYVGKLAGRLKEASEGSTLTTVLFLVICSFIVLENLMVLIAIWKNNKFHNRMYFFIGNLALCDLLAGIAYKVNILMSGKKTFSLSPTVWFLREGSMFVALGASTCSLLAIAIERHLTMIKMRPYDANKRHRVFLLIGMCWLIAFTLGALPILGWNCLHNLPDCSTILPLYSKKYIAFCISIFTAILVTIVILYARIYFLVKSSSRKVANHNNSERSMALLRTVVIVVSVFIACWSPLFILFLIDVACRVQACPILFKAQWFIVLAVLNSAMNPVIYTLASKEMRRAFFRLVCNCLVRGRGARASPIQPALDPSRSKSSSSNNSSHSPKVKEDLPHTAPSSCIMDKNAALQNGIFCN
Protocol Text: In vitro functional activity (agonism), CHO-human-S1P3-Aequorin assay
Assay type: cell-based
Setup Conditions: read-out: S1P3 pEC50 (converted)
Structures can show the parent of a compound that is named as a salt.

Compound	Target Or System	EC50
Cc1cc(C2CN(CCC(=O)O)CCO2)ccc1OCc1c(F)cccc1Cl (centres unmarked) [Compound 144, hydrochloride]	human S1P3 receptor (Homo sapiens, UniProt Q99500)	> 10 µM
CCCCCCCCOc1ccc(C2CN(CCC(=O)O)CCO2)c(C(F)(F)F)c1.Cl (centres unmarked) [Compound 189, hydrochloride]	human S1P3 receptor (Homo sapiens, UniProt Q99500)	1.58 µM
CCCCCCCCOc1cccc(C2CN(CCC(=O)O)CCO2)c1.Cl (centres unmarked) [Compound 231, hydrochloride]	human S1P3 receptor (Homo sapiens, UniProt Q99500)	> 10 µM
Cc1cc(OCc2cccc(Oc3ccccc3)c2)ccc1C1CN(CCC(=O)O)CCO1 (centres unmarked)	human S1P3 receptor (Homo sapiens, UniProt Q99500)	> 10 µM
Cc1cc(OCc2ccc3ccccc3c2)ccc1C1CN(CCC(=O)O)CCO1 (centres unmarked)	human S1P3 receptor (Homo sapiens, UniProt Q99500)	> 10 µM
O=C(O)CCN1CCOC(c2ccc(OCCCc3cccc(F)c3F)cc2)C1 (centres unmarked) [Compound 174, hydrochloride]	human S1P3 receptor (Homo sapiens, UniProt Q99500)	5.01 µM
CCCCCCCCOc1ccc(C2CN(CCP(=O)(O)O)CCO2)cc1 (centres unmarked)	human S1P3 receptor (Homo sapiens, UniProt Q99500)	0.501 µM
Cc1cc(OCc2cccc(OCc3ccccc3)c2)ccc1C1CN(CCC(=O)O)CCO1 (centres unmarked)	human S1P3 receptor (Homo sapiens, UniProt Q99500)	> 10 µM
O=C(O)CCN1CCOC(c2ccc(OCC3CCCCC3)cc2)C1 (centres unmarked) [Compound 24, trifluoroacetic acid salt]	human S1P3 receptor (Homo sapiens, UniProt Q99500)	> 31.6 µM
Cl.O=C(O)CCN1CCOC(c2ccc(OCc3c(Cl)cccc3Cl)cc2F)C1 (centres unmarked) [Compound 179, hydrochloride]	human S1P3 receptor (Homo sapiens, UniProt Q99500)	> 10 µM
O=C(O)CCN1CCOC(c2ccc(OCc3c(Cl)cccc3Cl)c(C(F)(F)F)c2)C1 (centres unmarked) [Compound 131, trifluoroacetic acid salt]	human S1P3 receptor (Homo sapiens, UniProt Q99500)	> 10 µM
Clc1cccc(Cl)c1COc1ccc(C2CN(CCc3nn[nH]n3)CCO2)cc1 (centres unmarked) [Compound 228, hydrochloride]	human S1P3 receptor (Homo sapiens, UniProt Q99500)	> 10 µM
O=C(O)CCN1CCOC(c2ccc(OCc3c(Cl)cccc3Cl)cc2)C1 (single isomer, unassigned; (+)) [Compound 34a, hydrochloride]	human S1P3 receptor (Homo sapiens, UniProt Q99500)	> 31.6 µM
CCCCc1ccc(COc2ccc(C3CN(CCC(=O)O)CCO3)c(C)c2)cc1 (centres unmarked)	human S1P3 receptor (Homo sapiens, UniProt Q99500)	> 10 µM
Cc1cc(OCc2ccc(C(C)(C)C)cc2)ccc1C1CN(CCC(=O)O)CCO1 (centres unmarked)	human S1P3 receptor (Homo sapiens, UniProt Q99500)	> 10 µM
Cc1cc(OCc2c(Cl)cccc2Cl)ccc1C1CN(CCC(=O)O)CCO1 (centres unmarked) [Compound 130, trifluoroacetic acid salt]	human S1P3 receptor (Homo sapiens, UniProt Q99500)	> 31.6 µM
O=C(O)CCN1CCOC(c2ccc(OCc3c(Cl)cccc3C(F)(F)F)cc2)C1 (centres unmarked) [Compound 153, hydrochloride]	human S1P3 receptor (Homo sapiens, UniProt Q99500)	> 10 µM
CCc1cc(Cl)c(COc2ccc(C3CN(CCC(=O)O)CCO3)cc2)c(Cl)c1 (centres unmarked) [Compound 164, hydrochloride]	human S1P3 receptor (Homo sapiens, UniProt Q99500)	2 µM
CCCc1ncc(OCCCOc2ccc(C3CN(CCC(=O)O)CCO3)cc2)s1 (centres unmarked) [Compound 3, trifluoroacetic acid salt]	human S1P3 receptor (Homo sapiens, UniProt Q99500)	15.8 µM
Cc1cccc2c1C(Oc1ccc(C3CN(CCC(=O)O)CCO3)cc1)CC2 (centres unmarked)	human S1P3 receptor (Homo sapiens, UniProt Q99500)	0.251 µM

This collection of values is drawn from patent US9273017B2.
